- Test system: U87 MG/PER2-dLuc cells
- measurement description: in vitro cellular bioluminescence (PER2-dLuc circadian reporter) assay
- Format: cell-based, human
- reported conditions: Fig. 3
- Description: U-87 MG (ATCC® HTB-14™) is a well-recognized human glioblastoma cell line widely used in the field of neuroscience. U87 MG cells have a regular and strong cellular circadian rhythm after transfection with a circadian gene (i.e., BMAL1) reporter vector (Jung et al. [2013]; Slat et al. [2017]). […]
outcome measure: concentration that disrupted the cellular circadian rhythm (µM)
Field: numeric (µM). Do not append units.

IN: Item under review: [CH3][Hg][Cl] [MHg, methylmercury (II) chloride] . Reported concentration that disrupted the cellular circadian rhythm?
OUT: 2.0

IN: Item under review: Clc1ccc(C(c2ccc(Cl)cc2)C(Cl)(Cl)Cl)cc1 . Reported concentration that disrupted the cellular circadian rhythm?
OUT: 10

Please find the next compound below.
IN: Item under review: CCOP(=S)(OCC)Oc1nc(Cl)c(Cl)cc1Cl . Reported concentration that disrupted the cellular circadian rhythm?
OUT: 1.5

Entry source: paper PMC10965668
